- Test system: HIV-1 LTR-III G-quadruplex (FAM/TAMRA-labeled LTR-III)
- Assay Remarks: FRET melting assay, LTR-III G4
- Assay type: binding
- Experimental Parameters: Table S1 primary screening, ligand:ODN 50:1, singlicate
Class definitions on LTR-III ΔTm: group 1 = under -0.3 °C, group 2 = from -0.3 °C up to 0 °C, group 3 = 0 °C and over

A selection of reference data follows.
# Compound, Discrete Label
records = [
    ("CN1C(=O)C(=Cc2ccc(O)cc2)N=C1C(=O)c1ccccc1 [M 2372a]", "group 3"),
    ("CC(C)OC(=O)c1noc(C(=O)NCc2ccccc2)c1-c1ccc(O)cc1 [SA 345B]", "group 1"),
    ("CNC(=O)c1cc(C=C2N=C(C=Cc3cc(Br)c(O)c(Br)c3)N(C)C2=O)ccc1O [ccD 2]", "group 3"),
    ("CCN(CC)c1ccc(C=C2NC(=S)NC2=O)cc1 [AL 172]", "group 2"),
    ("CCCC1=NC(=CN(C)C)C(=O)N1C [M 1945.1]", "group 1"),
]

-- ask Given COc1cc(O)ccc1/C=C1N=C(/C=C/c2ccccc2)N(C)C\1=O [MID 145] , name the class its LTR-III ΔTm places it in.
-- reply group 3

-- ask Given COc1ccc(-c2c(C(=O)OC(C)C)noc2C(=O)NCc2ccccn2)cc1 [SA 350C] , name the class its LTR-III ΔTm places it in.
-- reply group 1

-- ask Given CCC1=NC(=Cc2c[nH]c3cccc(C)c23)C(=O)N1C [M 1978] , name the class its LTR-III ΔTm places it in.
-- reply group 2

-- ask Given CC(C)OC(=O)c1noc(C(=O)N2CCOCC2)c1-c1cccc2ccccc12 [SA 343A] , name the class its LTR-III ΔTm places it in.
-- reply group 1

-- ask Given C[C@H](CS)C(=O)N1CCC[C@H]1C(=O)O [SA 333] , name the class its LTR-III ΔTm places it in.
-- reply group 1

-- ask Given COc1ccc(C=C2N=C(C)N(OC)C2=O)cc1 [M 312] , name the class its LTR-III ΔTm places it in.
-- reply group 2

-- ask Given COc1cc(O)ccc1C=C1N=C(C=Cc2c(F)c(F)c(F)c(F)c2F)N(C)C1=O [N 1049] , name the class its LTR-III ΔTm places it in.
-- reply group 3

-- ask Given CC1=NC(=Cc2ccc(O)cc2)C(=O)N1 [GA 01] , name the class its LTR-III ΔTm places it in.
-- reply group 1

-- ask Given COc1c(O)ccc(C=C2N=C(C=Cc3ccncc3)N(C)C2=O)c1O [N 1069] , name the class its LTR-III ΔTm places it in.
-- reply group 3

-- ask Given CC(C)CCC1=NC(=Cc2ccc(O)cc2)C(=O)N1C [GA 18] , name the class its LTR-III ΔTm places it in.
-- reply group 2
